Target: BCL2 D103Y (Homo sapiens, UniProt P10415, D103Y)
Assay: TR-FRET competitive binding assay, BCL2 D103Y
Details: Ki determined from IC50, read-out: TR_FRET EKI_Bcl2 D103Y
pKi: −log10 of the molar value.
Reported pKi values for a set of compounds
readout: pKi

INSERT INTO assay_data (compound, readout, observed_measurement) VALUES
  ('Cc1c(N(C(=O)c2cc(-c3cc4c(cc3C(=O)N3Cc5ccccc5C[C@H]3CN3CC[C@@H](F)C3)CN(C(=O)Cc3ccc(OCCC5CCOCC5)cc3)CC4)n(C)c2C)c2ccc(O)cc2)cc(C#N)n1C', 'pKi', 9.12),
  ('Cc1c(N(C(=O)c2cc(-c3cc4c(cc3C(=O)N3Cc5ccccc5C[C@H]3C)CN(C(=O)Cc3ccc(N5CCN6CC(F)(F)C[C@H]6C5)cc3F)CC4)n(C)c2C)c2ccc(O)cc2)cc(C#N)n1C', 'pKi', 8.68),
  ('Cc1c(N(C(=O)c2cc(-c3cc4c(cc3C(=O)N3Cc5ccccc5C[C@H]3CN3CCCCC3)CN(C(=O)Cc3ccc(OCCC5CCOCC5)cc3F)CC4)n(C)c2C)c2ccc(O)cc2)cc(C#N)n1C', 'pKi', 9.28),
  ('Cc1c(C(=O)N(c2ccc(O)cc2)c2cc(C#N)n(C(F)F)c2C)cc(-c2cc3c(cc2C(=O)N2Cc4ccccc4C[C@H]2CN2CCCCC2)CN(C(=O)Cc2ccc(OCCN4CCOCC4)cc2)CC3)n1C', 'pKi', 9.85),
  ('Cc1c(N(C(=O)c2cc(-c3cc4c(cc3C(=O)N3Cc5ccccc5C[C@H]3CN3CCC(C)CC3)CN(C(=O)Cc3ccc(OCCN5CCOCC5)cc3F)CC4)n(C)c2C)c2ccc(O)cc2)cc(C#N)n1C', 'pKi', 9.77),
  ('Cc1c(N(C(=O)c2cc(-c3cc4c(cc3C(=O)N3Cc5ccccc5C[C@H]3CN3CCCCC3)CN(C(=O)Cc3ccc(OCCC5COCCO5)cc3F)CC4)n(C)c2C)c2ccc(O)cc2)cc(C#N)n1C (single isomer, unassigned) [Example 175]', 'pKi', 9.47),
  ('Cc1c(N(C(=O)c2cc(-c3cc4c(cc3C(=O)N3Cc5ccccc5C[C@H]3CN3CCCCC3)CN(C(=O)Cc3ccc(OCCN(C)CC5COC5)cc3F)CC4)n(C)c2C)c2ccc(O)cc2)cc(C#N)n1C', 'pKi', 10.05),
  ('Cc1c(C(=O)N(c2ccc(O)cc2)c2cc(C#N)n(C(F)F)c2C)cc(-c2cc3c(cc2C(=O)N2Cc4ccccc4C[C@H]2CN2CCCCC2)CN(C(=O)Cc2ccc(OCCN4CCC(F)CC4)cc2F)CC3)n1C', 'pKi', 9.33),
  ('Cc1c(N(C(=O)c2cc(-c3cc4c(cc3C(=O)N3Cc5ccccc5C[C@H]3C)CN(C(=O)Cc3ccc(OCCN5CCC(F)CC5)cc3)CC4)n(C)c2C)c2ccc(O)cc2)cc(C#N)n1C', 'pKi', 9.74);
